target: HCV Core 134-171-TT peptide (ALRZ-9 peptide) (HCV-1); assay: SPR, captured mAb;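 further: Anti-HCV Core mAbs from hybridoma supernatants held on a rabbit anti-mouse IgG CM5 surface, peptide flowed over 3 min then 4 min dissociation, duplicate concentrations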
kon values, listed per item

HCV 208B-556 (antibody, V domains shown) VH: QLQQSGPVLVKPGASVMISCKTSGYTFTENAMHWVKQSHGKSLEWIGGVNPNNGDTIFNQKFKGKATLTVDKSSSTAFMEFRSLTSEESTVYYCVRRELDFFDYWGQGTSVTVSS VL: DIVLTQSPASLAVSLGQRATISCRASQSVSTSRYSYMHWYQQKPGQPPKLLIKYASNLESGVPARFSGSGSGTDFTLNIHPVAEEDTATYYCQHSWEFPFTFGSGTKLEIKR    1.5e+06 M⁻¹ s⁻¹
HCV 208A-1064 (antibody, V domains shown) VH: EVQLQQSGPELVKPGASVKISCKTSGYTFTEYAMHWMKQSHGKSLEWIGGINPTNGDTIYNQKFKDKAKLTVDRSSSTAYMELRSLTSDDSALFYCARRELDYFASWGQGTTLTVSS VL: DIVLTQSPASLIVSLGQTATISCRASQSVSTSRFSYLHWIQQKPGQPPKLLIKYASNLESGVPVRFSGSGSGTDFTLNIHPVEEEDTATYFCQHSWEFPFTFGSGTKLKIKR    1.6e+06 M⁻¹ s⁻¹
HCV 208B-251 (antibody, V domains shown) VH: QLQQSGPVLVKPGASVKISCKTSGYTFTENAMHWVKQSHGKSLEWIGGVNPNNGDTIYNQKFKGKATLTVDKSSSTAFMELRSLTSEESPVYFCVRRELDFFDYWGQGTSVTVSS VL: DIVLTQSPASLAVSLGKKATISCRASQSVSTSRYSYMHWYQQKPGHPPKLLIKYASNLESGVPARFSGSGSGTDFTLNIHPVAEEDTAAYYCQHSWEFPFTFGSGTKLEIKR    1.1e+06 M⁻¹ s⁻¹

Input line: Please list kon recorded for the binder HCV 208A-877 (antibody, V domains shown) VH: QLQQSGPELVKPGASVKISCKTSGYTFTENAMHWVKQSRGKSLEWIGGVNPNNGDTVYTQKFKGKATLTVAKSSSTAYMELRTMTCEESTVYYCASREPDFFDYWGQGSSVTVSS VL: QIVLTQSPAIMSVSPGEKVSMTCSASSSVTYMHWYQQKSGTSPKRWIYDTSELASGVPARFSGSGSGTTYSLTISSMEAEDAATYYCQQWSNKPLTFGAGTKLELKR
Output line: 1.1e+06 M⁻¹ s⁻¹

Input line: Please list kon recorded for the binder HCV 208A-159 (antibody, V domains shown) VH: QLQQSGPAQVKPGASVMISCKTSGYTFTENAMHWVKQSHGKSLEWIGGVNPNNGDTIFNQKFKDKAALTVDKSSSTAFMELRSLTSEESTVYYCVRRELDFFDYWGQGTSVTVSS VL: DIVLTQSPASLAVSLGQRATISCRASQSVSTSRYSYVHWYQQKPGQPPKLLIKYAANLESGVPARFSGSGSGTDFTLNIHPVAEEDAAAYYCQHSWEFPFTFGSGTKLEIKR
Output line: 1.4e+06 M⁻¹ s⁻¹

Input line: Please list kon recorded for the binder HCV 208A-222 (antibody, V domains shown) VH: EVQLQQSGPELEKPGASVRISCKTSGYTFTEYAMHWVKQSHGKSLEWIGGINPNNGNAIYNQIFKDKATLTVDRSSSTAYMGLRSLTFGDSGVYFCVRRQLDYFDYWGQGASLTVSS VL: DIVVTQSPASLAVSLGQRATISCRASQSVSTSRYSYLHWYQQKPGQPPKLLIKYASNLESGVPARFSGSGSGTDFTLNIHPVGEEDTATYYCQHSWEFPFTFGSGTKLEIKR
Output line: 1.1e+06 M⁻¹ s⁻¹

Input line: Please list kon recorded for the binder HCV 208B-471 (antibody, V domains shown) VH: QGQLQQSGPVLVKPGASEILYCKTSGFTFSSTYISWLKQKPGQSLEWIAWIYAGTGATNYNQKFTGKAQLTVDASSNTAYMHFSGLTPEDSAIYYCAISGAGVYWGQGTLVTVSA VL: DVVMTQTPLSLPVSLGDQASISCRSSQSLLHSNGNTYLEWYLQKPGQSPNLLIYNVSNRFSGVPDRFSGSGSGTDFALKISRVGAEDLGVYYCFQGSHVPLTFGAGTKLELKR
Output line: 220000 M⁻¹ s⁻¹

Input line: Please list kon recorded for the binder HCV 208B-174 (antibody, V domains shown) VH: EVKLEESGGGLVQPGGSMKLSCVASGFSFSSYWMSWVRQSPEKGLDWVAEIRLRSDNYATHYAESVKGRFTISRDDSISRLYLQMNTLRAEDTGIYYCTWMTYWGQGTLVTVSA VL: QNVLTQSPAIMSASPGEKVTMSCSASSSVTYMFWYQLKPESSPRLLIYDTSNLASGVPVRFSGSGSGTSYSLTISRMEAEDAATYYCQEWSSYPLTFGAGTKLDLKR
Output line: 760000 M⁻¹ s⁻¹

Input line: Please list kon recorded for the binder HCV 208B-560 (antibody, V domains shown) VH: EVQLQQSGPELEKPGASVKISCKTSGYTFTEYAMHWVKQSHGMSLEWIGGINPSNGNAIYNQIFKDKATLTVDRSSSTAYMGLRSLTFGDSGVYFCVRRQLDFFDYWGQGASLTVSS VL: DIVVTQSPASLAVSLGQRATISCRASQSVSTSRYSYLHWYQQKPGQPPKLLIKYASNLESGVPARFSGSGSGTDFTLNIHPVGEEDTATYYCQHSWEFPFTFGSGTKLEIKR
Output line: 1.1e+06 M⁻¹ s⁻¹

Input line: Please list kon recorded for the binder HCV 208A-830 (antibody, V domains shown) VH: EVRLQQPGPEVEKPGASVKISCKTSGYTFTEYAIHWVKQSHGESLEWIGGINPSNGDPIYNQIFKDKATLTVDRSSNTAYMGLRSLTVGDSGVYFCVRRQLDYFDFWGQGASLTVSS VL: DIVLTQSPASLAVSLGQRATISCRSSQSVSTSRYSYLHWYQQKPGQPPKLLIKYASNLESGVPARFSGSGSGTDFTLNIHPVGEEDPATYYCQHSWEFPFTFGSGTKLEIKR
Output line: 3.4e+06 M⁻¹ s⁻¹
